target: human liver glycogen phosphorylase a (HLGPa) (Homo sapiens); construct: creating a full-length cDNA fused at the 5′ end to codons for methionine-glycine-alanine-histidine; 6xHis tag (leader Met-Gly-Ala-His6-Gly-Gly) (N); made in house; host or cells: E. coli (bacterial expression plasmid pTXK1007LTev); assay: Human liver glycogen phosphorylase a enzymatic activity assay (coupled, fluorescent resorufin readout, with and without 10 mM glucose); type: biochemical; conditions: human liver glycogen phosphorylase a enzymatic activity assay
Sequence (P06737 2-847 limits assumed): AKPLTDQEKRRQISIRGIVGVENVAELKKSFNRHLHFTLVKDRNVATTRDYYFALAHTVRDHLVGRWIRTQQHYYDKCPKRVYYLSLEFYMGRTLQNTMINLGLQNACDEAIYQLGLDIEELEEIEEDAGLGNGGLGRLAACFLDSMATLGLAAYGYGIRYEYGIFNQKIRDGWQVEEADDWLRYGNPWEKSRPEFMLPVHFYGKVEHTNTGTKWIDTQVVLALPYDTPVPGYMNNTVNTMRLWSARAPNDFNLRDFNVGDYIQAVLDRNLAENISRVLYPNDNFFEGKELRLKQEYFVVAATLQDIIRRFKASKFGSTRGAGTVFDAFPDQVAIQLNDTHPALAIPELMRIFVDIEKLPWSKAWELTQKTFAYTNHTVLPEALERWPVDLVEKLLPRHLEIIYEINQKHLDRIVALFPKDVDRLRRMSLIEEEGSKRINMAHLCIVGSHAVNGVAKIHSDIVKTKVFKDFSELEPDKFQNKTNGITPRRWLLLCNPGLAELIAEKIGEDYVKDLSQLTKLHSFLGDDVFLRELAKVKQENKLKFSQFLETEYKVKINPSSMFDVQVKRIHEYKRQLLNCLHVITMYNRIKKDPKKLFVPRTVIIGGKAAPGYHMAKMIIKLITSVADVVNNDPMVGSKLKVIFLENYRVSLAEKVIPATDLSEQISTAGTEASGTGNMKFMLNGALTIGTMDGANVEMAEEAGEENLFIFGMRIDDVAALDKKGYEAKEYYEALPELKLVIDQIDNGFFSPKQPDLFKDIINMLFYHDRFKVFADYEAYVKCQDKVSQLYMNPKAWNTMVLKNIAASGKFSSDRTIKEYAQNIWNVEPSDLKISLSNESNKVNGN
// reported IC50 per item
# output: bare number, implied unit nM

## Input Fill in IC50 for record O=C(Nc1cc(-c2ccccc2)sc1C(=O)N[C@H](C(=O)O)C1CCCCC1)Nc1c(Cl)cccc1Cl [Example 411]
## Output 120

## Input Fill in IC50 for record COc1cc(NC(=O)Nc2c(C)cc(C)cc2C)c(C(=O)NC(C(=O)O)c2ccccc2)cc1OC (stereo not shown) [Example 106]
## Output 4230

## Input Fill in IC50 for record Cc1cc(C)c(NC(=O)Nc2cc(-c3ccccc3)ccc2C(=O)N[C@H](C(=O)O)[C@@H](C)OC(C)(C)C)c(C)c1 [Example 528]
## Output 3

---

// reported IC50 per item
target: human liver glycogen phosphorylase a (HLGPa) (Homo sapiens); construct: creating a full-length cDNA fused at the 5′ end to codons for methionine-glycine-alanine-histidine; 6xHis tag (leader Met-Gly-Ala-His6-Gly-Gly) (N); made in house; host or cells: E. coli (bacterial expression plasmid pTXK1007LTev); test: Human liver glycogen phosphorylase a enzymatic activity assay (coupled, fluorescent resorufin readout, with and without 10 mM glucose); assay type: biochemical; details: human liver glycogen phosphorylase a; table does not say whether with or without 10 mM glucose
# output: bare number, implied unit nM

Some molecules with known IC50 results, for comparison:
COc1ccc(-c2ccc(C(=O)N[C@@H](CC(=O)O)C(=O)O)c(NC(=O)Nc3c(C)cc(C)cc3C)c2)cc1 [Example 362] | 6
Cc1cc(C)c(NC(=O)Nc2cc(F)ccc2C(=O)NC2(C(=O)O)CCCCCC2)c(C)c1 [Example 221] | 300
COC(=O)[C@H](CC(=O)O)NC(=O)c1ccc(-c2ccc(OC)cc2)cc1NC(=O)Nc1c(C)cc(C)cc1C [Example 372] | 990
Cc1cc(C)c(NC(=O)Nc2cc3ccccc3cc2C(=O)N[C@H](CC(=O)O)C(=O)O)c(C)c1 [Example 356] | 100
Cc1cc(C)c(NC(=O)Nc2cc3ccccc3cc2C(=O)NC2(C(=O)O)CCOCC2)c(C)c1 [Example 282] | 1150
O=C(O)CN(Cc1ccccc1)C(=O)c1cc2ccccc2cc1NC(=O)Nc1c(Cl)cc(Cl)cc1Cl [Example 332] | 4350
Cc1cc(C)c(NC(=O)Nc2cc(-c3ccc(CN4CCOCC4)cc3)ccc2C(=O)N[C@H](C(=O)O)C2CCCCC2)c(C)c1 [Example 217] | 9
Cc1cc(C)c(NC(=O)Nc2cc3ccccc3cc2C(=O)NC2(C(=O)O)CCN(C(=O)OC(C)(C)C)CC2)c(C)c1 [Example 287] | 430
COc1ccc(-c2ccc(C(=O)N[C@H](C(=O)O)C3CCCC3)c(NC(=O)Nc3c(C)cc(C)cc3C)c2)cc1 [Example 210] | 14
Cc1cc(C)c(NC(=O)Nc2cc(F)ccc2C(=O)N[C@@H](CC(=O)O)C(=O)O)c(C)c1 [Example 365] | 1680

## Input Fill in IC50 for record Cc1cc(C)c(NC(=O)Nc2cc(-c3ccc4c(c3)OCO4)ccc2C(=O)N[C@H](C(=O)O)C2CCCCC2)c(C)c1 [Example 224]
## Output 3

## Input Fill in IC50 for record COC(=O)[C@H](CC(=O)OC(C)(C)C)NC(=O)c1ccc(-c2ccc(OC)cc2)cc1NC(=O)Nc1c(C)cc(C)cc1C [Example 371]
## Output 13500

## Input Fill in IC50 for record Cc1cc(C)c(NC(=O)Nc2cc3ccccc3cc2C(=O)N[C@H](CC(=O)O)c2ccccc2)c(C)c1 [Example 336]
## Output 610

## Input Fill in IC50 for record Cc1cc(C)c(CC(=O)Nc2cc3ccccc3cc2C(=O)N[C@H](C(=O)O)[C@@H](C)OC(C)(C)C)c(C)c1 [Example 268]
## Output 50

## Input Fill in IC50 for record O=C(Nc1cc2ccccc2cc1C(=O)NC1(C(=O)O)CCN(Cc2ccccc2)CC1)Nc1c(Cl)cccc1Cl [Example 286]
## Output 1380

## Input Fill in IC50 for record CCOC(=O)C[C@H](NC(=O)c1ccc(-c2ccc(F)c(F)c2)cc1NC(=O)Nc1c(C)cc(C)cc1C)C(=O)O [Example 374]
## Output 820

## Input Fill in IC50 for record Cc1cc(C)c(NC(=O)Nc2cc(-c3ccc(OC(F)(F)F)cc3)ccc2C(=O)N[C@H](C(=O)O)C2CCCCC2)c(C)c1 [Example 204]
## Output 190

## Input Fill in IC50 for record Cc1cc(C)c(NC(=O)Nc2cc(Cl)cnc2C(=O)N[C@H](C(=O)O)C2CCCCC2)c(C)c1 [Example 317]
## Output 920

## Input Fill in IC50 for record Cc1cc(C)c(NC(=O)Nc2cc3ccccc3cc2C(=O)N2CCN(C(=O)OC(C)(C)C)C[C@H]2C(=O)O)c(C)c1 [Example 254]
## Output 810

## Input Fill in IC50 for record Cc1cccc(C)c1NC(=O)Nc1cc2ccccc2cc1C(=O)N(CC(=O)O)C1CCCCC1 [Example 245]
## Output 2130

## Input Fill in IC50 for record COCCOC[C@H](NC(=O)c1cc2ccccc2cc1NC(=O)Nc1c(C)cc(C)cc1C)C(=O)O [Example 272]
## Output 38

## Input Fill in IC50 for record COC(=O)[C@@H](NC(=O)c1cc(-c2ccccc2)sc1NC(=O)Nc1c(Cl)cccc1Cl)C1CCCCC1 [Example 383]
## Output 2370

## Input Fill in IC50 for record CCCC(=O)N1CCC(NC(=O)c2cc3ccccc3cc2NC(=O)Nc2c(C)cc(C)cc2C)(C(=O)O)CC1 [Example 290]
## Output 1240

## Input Fill in IC50 for record Cc1cc(C)c(NC(=O)Nc2cc3ccccc3cc2C(=O)O)c(C)c1 [Example 263]
## Output 3460

## Input Fill in IC50 for record COc1ccc(-c2ccc(C(=O)N[C@H](C(=O)O)[C@@H](C)OC(C)(C)C)c(NC(=O)Nc3c(Cl)cc(OC(F)(F)F)cc3Cl)c2)cc1 [Example 232]
## Output 7

## Input Fill in IC50 for record Cc1cc(C)c(NC(=O)Nc2cc3ccccc3cc2C(=O)N[C@@H](CC(=O)O)C(=O)O)c(C)c1 [Example 354]
## Output 61

## Input Fill in IC50 for record Cc1cc(C)c(NC(=O)Nc2cc3ccccc3cc2C(=O)N[C@H](C#N)C2CCC(F)(F)CC2)c(C)c1 [Example 342]
## Output 8600

## Input Fill in IC50 for record Cc1cc(C)c(NC(=O)Nc2cc(-c3ccc(CN(C)C)cc3)ccc2C(=O)N[C@H](C(=O)O)C2CCCCC2)c(C)c1 [Example 213]
## Output 24
